# measuredTarget: UniProt:O00329
# Sequence (O00329 whole entry, looked up): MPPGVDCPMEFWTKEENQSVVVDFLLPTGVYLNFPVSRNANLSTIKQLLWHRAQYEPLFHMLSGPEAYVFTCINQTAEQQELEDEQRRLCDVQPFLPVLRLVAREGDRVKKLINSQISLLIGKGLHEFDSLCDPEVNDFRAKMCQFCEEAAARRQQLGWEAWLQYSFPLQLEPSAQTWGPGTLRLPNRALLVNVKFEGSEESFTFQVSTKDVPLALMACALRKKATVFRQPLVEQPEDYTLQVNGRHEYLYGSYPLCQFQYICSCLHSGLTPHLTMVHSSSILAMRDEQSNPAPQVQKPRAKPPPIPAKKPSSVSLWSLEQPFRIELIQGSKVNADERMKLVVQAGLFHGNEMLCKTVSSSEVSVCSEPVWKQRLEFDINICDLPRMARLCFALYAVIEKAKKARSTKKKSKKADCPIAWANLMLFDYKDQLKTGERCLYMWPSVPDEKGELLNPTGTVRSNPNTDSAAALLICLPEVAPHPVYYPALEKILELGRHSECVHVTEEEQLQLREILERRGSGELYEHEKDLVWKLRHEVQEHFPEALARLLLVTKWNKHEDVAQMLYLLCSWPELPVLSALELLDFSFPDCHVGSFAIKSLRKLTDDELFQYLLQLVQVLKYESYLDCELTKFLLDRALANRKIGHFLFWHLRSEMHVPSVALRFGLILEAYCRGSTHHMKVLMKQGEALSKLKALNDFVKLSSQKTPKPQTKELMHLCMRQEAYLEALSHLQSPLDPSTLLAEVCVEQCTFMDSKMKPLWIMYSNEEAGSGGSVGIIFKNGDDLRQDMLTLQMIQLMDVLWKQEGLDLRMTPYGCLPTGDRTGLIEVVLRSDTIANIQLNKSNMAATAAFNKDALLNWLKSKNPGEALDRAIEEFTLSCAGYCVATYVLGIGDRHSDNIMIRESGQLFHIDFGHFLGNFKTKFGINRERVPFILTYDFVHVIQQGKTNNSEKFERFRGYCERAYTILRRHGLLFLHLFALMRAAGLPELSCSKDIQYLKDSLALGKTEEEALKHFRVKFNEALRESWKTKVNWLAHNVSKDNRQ
# testDetails: Assessment of Stimulus Induced TCE Cell Proliferation
# conditionDescription: t cells
metricName: pEC50
Note on units: pEC50 is unitless, being -log10 of a concentration expressed in mol/L.

Some entries whose results are on file:
Cc1cccc2nc(Cn3cnc4c(N)ncnc43)n(-c3ccccc3Cl)c(=O)c12	5.38
Nc1ncnc2c1ncn2Cc1nc2cccc(Cl)c2c(=O)n1-c1ccccc1Cl	5.28
O=c1c2ccc(F)cc2nc(CSc2ncnc3[nH]cnc23)n1-c1ccccc1Cl	5.64
Nc1ncnc2c1ncn2Cc1nc2cccc(F)c2c(=O)n1-c1ccccc1Cl	5.41

Lookup: Give its pEC50 value. Item: `COc1ccccc1Cn1c(CSc2ncnc3[nH]cnc23)nc2ccccc2c1=O`
Found: 5.39

Lookup: Give its pEC50 value. Item: `O=c1c2cccc(Cl)c2nc(CSc2ncnc3[nH]cnc23)n1-c1ccccc1Cl`
Found: 5.46

Lookup: Give its pEC50 value. Item: `O=c1c2ccccc2nc(CSc2ncnc3[nH]cnc23)n1-c1ccccc1Cl`
Found: 5.26

Lookup: Give its pEC50 value. Item: `O=c1c2c(F)cccc2nc(CSc2ncnc3[nH]cnc23)n1-c1ccccc1Cl`
Found: 5.74

Lookup: Give its pEC50 value. Item: `Cc1cccc2nc(Cn3cnc4c(N)ncnc43)n(-c3ccccc3F)c(=O)c12`
Found: 5.30

Lookup: Give its pEC50 value. Item: `O=c1c2ccccc2nc(CSc2ncnc3[nH]ncc23)n1-c1ccccc1Cl`
Found: 5.23

Lookup: Give its pEC50 value. Item: `Cc1cccc2nc(CSc3ncnc4[nH]cnc34)n(-c3ccccc3C(C)C)c(=O)c12`
Found: 5.54

Lookup: Give its pEC50 value. Item: `O=c1c2cc3ccccc3cc2nc(CSc2ncnc3[nH]cnc23)n1-c1ccccc1Cl`
Found: 6.05

* * *

# measuredTarget: PIK3CB (UniProt P42338)
# Sequence (P42338 whole entry, looked up): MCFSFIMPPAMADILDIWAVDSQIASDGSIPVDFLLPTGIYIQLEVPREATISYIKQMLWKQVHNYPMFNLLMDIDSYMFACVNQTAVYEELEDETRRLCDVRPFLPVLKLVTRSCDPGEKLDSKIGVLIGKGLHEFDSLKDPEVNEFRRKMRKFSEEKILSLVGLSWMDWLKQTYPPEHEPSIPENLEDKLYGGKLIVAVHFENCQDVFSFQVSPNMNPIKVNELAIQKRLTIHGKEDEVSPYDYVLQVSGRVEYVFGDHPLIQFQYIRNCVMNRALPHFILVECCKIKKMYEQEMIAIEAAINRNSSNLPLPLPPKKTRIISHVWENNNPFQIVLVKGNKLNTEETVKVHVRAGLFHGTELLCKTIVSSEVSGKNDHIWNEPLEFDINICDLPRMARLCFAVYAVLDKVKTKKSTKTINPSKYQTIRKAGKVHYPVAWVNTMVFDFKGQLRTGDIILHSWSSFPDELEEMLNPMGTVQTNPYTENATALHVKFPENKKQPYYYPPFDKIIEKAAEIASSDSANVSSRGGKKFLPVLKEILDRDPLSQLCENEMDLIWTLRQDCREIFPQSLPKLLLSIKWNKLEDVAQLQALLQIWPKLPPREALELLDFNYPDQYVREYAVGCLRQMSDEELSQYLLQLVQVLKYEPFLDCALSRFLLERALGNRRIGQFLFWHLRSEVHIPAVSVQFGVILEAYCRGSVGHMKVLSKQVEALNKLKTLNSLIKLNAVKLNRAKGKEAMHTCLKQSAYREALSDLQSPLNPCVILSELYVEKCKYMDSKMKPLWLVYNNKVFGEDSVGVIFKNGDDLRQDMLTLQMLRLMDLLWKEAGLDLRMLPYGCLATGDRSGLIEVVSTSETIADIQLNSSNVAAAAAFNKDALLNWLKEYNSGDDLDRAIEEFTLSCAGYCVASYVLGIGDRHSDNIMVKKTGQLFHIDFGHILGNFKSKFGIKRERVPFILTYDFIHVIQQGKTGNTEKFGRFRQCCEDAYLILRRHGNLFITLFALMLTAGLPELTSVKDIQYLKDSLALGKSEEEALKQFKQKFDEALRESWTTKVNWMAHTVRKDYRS
# testDetails: Inhibition of PIK3CB Kinase Activity
# conditionDescription: concentration not given here
metricName: inhibition
Answer format reminder: number followed by unit.

Some entries whose results are on file:
Nc1ncnc2c1ncn2Cc1nc2cccc(F)c2c(=O)n1-c1ccccc1Cl	18%
O=c1c2ccc(F)cc2nc(CSc2ncnc3[nH]cnc23)n1-c1ccccc1Cl	-1%
O=c1c2ccc([N+](=O)[O-])cc2nc(CSc2ncnc3[nH]cnc23)n1-c1ccccc1Cl	9%
O=c1c2ccccc2nc(CSc2ncnc3[nH]cnc23)n1-c1cccc(Cl)c1	35%
COc1ccccc1Cn1c(CSc2ncnc3[nH]cnc23)nc2ccccc2c1=O	27%

Lookup: Give its inhibition value. Item: `Nc1ncnc2c1ncn2Cc1nc2ccccc2c(=O)n1N1CCOCC1`
Found: 43%

Lookup: Give its inhibition value. Item: `O=c1c2cc(F)ccc2nc(CSc2ncnc3[nH]cnc23)n1-c1ccccc1Cl`
Found: 19%

Lookup: Give its inhibition value. Item: `O=c1c2cccc(C(F)(F)F)c2nc(CSc2ncnc3[nH]cnc23)n1-c1ccccc1Cl`
Found: 7%

Lookup: Give its inhibition value. Item: `Nc1ncnc2c1ncn2Cc1nc2cc(F)ccc2c(=O)n1-c1ccccc1Cl`
Found: 47%

Lookup: Give its inhibition value. Item: `O=c1c2cc(Cl)ccc2nc(CSc2ncnc3[nH]cnc23)n1-c1ccccc1Cl`
Found: 31%

Lookup: Give its inhibition value. Item: `O=c1c2ccccc2nc(CSc2ncnc3[nH]ncc23)n1-c1ccccc1Cl`
Found: 29%

Lookup: Give its inhibition value. Item: `O=c1c2c(F)cccc2nc(CSc2ncnc3[nH]cnc23)n1Cc1ccccc1`
Found: 23%

Lookup: Give its inhibition value. Item: `Nc1ncnc2c1ncn2Cc1nc2ccc(Br)cc2c(=O)n1-c1ccccc1Cl`
Found: 22%
